- Tested on: orientation hypermotility
- Method description: Sedative action: orientation hypermotility in mice
- Format: in vivo, mouse (female NMRI)
- Assay conditions: Mus musculus, 0.5 h; mice, oral, 30 min after administration, 50% decrease in orientation hypermotility vs placebo; read-out: Sedation ED 50%
This listing pairs molecules with measured ED50.
Hi! Could you send only the number? It should be in mg/kg, unit omitted.

ED50 for N#CC=C1c2ccccc2CC(N2CCN(CCO)CC2)c2ccccc21 (mixture of isomers) [Example 7] ?
10

ED50 for CN1CCN(C2Cc3ccccc3C(=CC#N)c3ccccc32)CC1 (mixture of isomers) [Example 1] ?
5.6

ED50 for CN1CCN(C2=Nc3ccccc3Cc3ccccc32)CC1 [Perlapine, perlapine, reference compound] ?
2.01

ED50 for CN1CCN(C2Cc3cc(Cl)ccc3C(=CC#N)c3ccccc32)CC1 (mixture of isomers) [Example 4] ?
5.5

ED50 for C[N+]1([O-])CCN(C2Cc3ccccc3C(=CC#N)c3ccccc32)CC1 (mixture of isomers) [Example 8] ?
15.2

ED50 for CCN1CCN(C2Cc3ccccc3C(=CC#N)c3ccccc32)CC1 (mixture of isomers) [Example 5] ?
6.7

Source of measurements: patent US4376773A
